Test system: α-isomaltosylglucosaccharide-forming enzyme
assay details: Action on saccharides as substrates (TLC), enzyme of C9 strain
Format: biochemical, Bacillus globisporus C9 strain
Design: key: −: it showed no change; +: it showed a slight reduction of the color spot of the substrate and the formation of other reaction product; ++: it showed a high reduction of the color spot of the substrate and the formation of other reaction product; +++: it showed a substantial disappearance of the substrate spot and the formation of other reaction product
condition: two units/g substrate, substrate 2% (w/v), 30° C., pH 6.0, 24 hours
experimental endpoint: Enzymatic action, Enzyme of C9 strain

OC[C@H]1O[C@@](CO)(O[C@H]2O[C@H](CO)[C@@H](O[C@H]3O[C@H](CO)[C@@H](O)[C@H](O)[C@H]3O)[C@H](O)[C@H]2O)[C@@H](O)[C@@H]1O ... +
OC[C@H]1O[C@H](OC[C@H]2O[C@H](O[C@H]3[C@H](O)[C@@H](O)C(O)O[C@@H]3CO)[C@H](O)[C@@H](O)[C@@H]2O)[C@H](O)[C@@H](O)[C@@H]1O (stereo partly shown) ... −
OC[C@H]1O[C@H](O[C@H]2[C@H](O)[C@@H](O)[C@@H](O[C@H]3[C@H](O)[C@@H](O)[C@@H](O[C@H]4[C@H](O)[C@@H](O)C(O)O[C@@H]4CO)O[C@@H]3CO)O[C@@H]2CO)[C@H](O)[C@@H](O)[C@@H]1O (stereo partly shown) ... +++
O=C[C@H](O)[C@@H](O)[C@H](O[C@@H]1O[C@H](CO)[C@@H](O)[C@H](O)[C@H]1O)[C@H](O)CO ... −
OC[C@H]1O[C@H](OC[C@H]2O[C@H](OC[C@H]3OC(O)[C@H](O)[C@@H](O)[C@@H]3O)[C@H](O)[C@@H](O)[C@@H]2O)[C@H](O)[C@@H](O)[C@@H]1O (stereo partly shown) ... −

Supply measured Enzymatic action, Enzyme of C9 strain of OC[C@H]1O[C@H](O[C@H]2O[C@H](CO)[C@@H](O)[C@H](O)[C@H]2O[C@H]2O[C@H](CO)[C@@H](O)[C@H](O)[C@H]2O)[C@H](O)[C@@H](O)[C@@H]1O in your reply.
−

Supply measured Enzymatic action, Enzyme of C9 strain of OC[C@H]1O[C@H](O[C@H]2[C@H](O)[C@@H](O)[C@H](O)O[C@@H]2CO)[C@H](O)[C@@H](O)[C@@H]1O in your reply.
+

Supply measured Enzymatic action, Enzyme of C9 strain of OC[C@H]1O[C@@H](OC[C@H]2OC(O)[C@H](O)[C@@H](O)[C@@H]2O)[C@H](O)[C@@H](O)[C@@H]1O (stereo partly shown) in your reply.
−

Supply measured Enzymatic action, Enzyme of C9 strain of OC[C@H]1O[C@H](O[C@H]2O[C@H](CO)[C@@H](O[C@H]3O[C@H](CO)[C@@H](O)[C@H](O)[C@H]3O)[C@H](O)[C@H]2O)[C@H](O)[C@@H](O)[C@@H]1O [Maltosyl glucoside, maltosyl glucoside] in your reply.
++

Supply measured Enzymatic action, Enzyme of C9 strain of OC[C@H]1O[C@@](CO)(O[C@H]2O[C@H](CO)[C@@H](O)[C@H](O)[C@H]2O)[C@@H](O)[C@@H]1O in your reply.
−
